- Test protocol: physchem
- Condition details: pH 3, aqueous buffer
Metric name: solubility

IN: Name the recorded solubility for COc1ccc(CC(C)NCC(O)c2ccc(O)c(NC=O)c2)cc1 (racemic) .
OUT: ~4800 µg/mL

###

- Test protocol: physchem
- Condition details: pH 4, aqueous buffer
Metric name: solubility

IN: Find the recorded solubility belonging to COc1ccc(CC(C)NCC(O)c2ccc(O)c(NC=O)c2)cc1 (racemic) [formoterol] and report it.
OUT: ~3000 µg/mL

###

- Test protocol: physchem
- Condition details: aqueous buffer
Metric name: solubility

IN: I would be grateful if you could share the reported solubility for COc1ccc(CC(C)NCC(O)c2ccc(O)c(NC=O)c2)cc1 (racemic) .
OUT: ~2200 µg/mL

Recorded values, source patent US6814953B2.
